Biological target: rat P2X7 (Rattus norvegicus (Rat), UniProt Q64663)
Sequence (Q64663 whole entry): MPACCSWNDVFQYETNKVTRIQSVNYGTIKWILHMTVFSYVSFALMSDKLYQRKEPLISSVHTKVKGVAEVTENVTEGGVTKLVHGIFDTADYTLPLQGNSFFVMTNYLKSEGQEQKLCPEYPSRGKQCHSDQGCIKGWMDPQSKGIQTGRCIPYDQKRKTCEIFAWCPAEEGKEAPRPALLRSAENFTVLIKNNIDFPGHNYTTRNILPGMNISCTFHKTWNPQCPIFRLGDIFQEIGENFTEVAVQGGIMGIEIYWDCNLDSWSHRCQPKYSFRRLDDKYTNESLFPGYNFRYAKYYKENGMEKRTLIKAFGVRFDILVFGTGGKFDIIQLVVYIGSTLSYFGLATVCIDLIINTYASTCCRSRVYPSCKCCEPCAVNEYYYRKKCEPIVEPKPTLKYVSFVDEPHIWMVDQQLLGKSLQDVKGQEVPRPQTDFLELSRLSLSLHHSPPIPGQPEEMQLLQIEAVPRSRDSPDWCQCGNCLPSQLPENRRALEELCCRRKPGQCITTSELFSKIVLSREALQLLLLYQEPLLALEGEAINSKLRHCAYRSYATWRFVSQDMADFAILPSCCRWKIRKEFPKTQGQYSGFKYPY
Assay: Ca2+ flux (FLIPR) in 1321N1 cells expressing recombinant rat P2X7 channel;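 also: Calcium-4 dye fluorescence change read 180 s after agonist addition, following 30 min cell preincubation with test compound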
Settings: 250 μM BzATP
Answer each item with its documented pIC50.
The value called pIC50 is obtained by taking minus log10 of the concentration in mol/L.

Task item: Reported pIC50, molecule Cc1cccc(-n2nnc3c2CCN(C(=O)c2cccc(C(F)(F)F)c2Cl)[C@H]3C)n1 (single isomer, unassigned) : ____
Reply: 7.99

Task item: Also need CC(C)C1c2ncn(-c3cnccn3)c2CCN1C(=O)c1cccc(C(F)(F)F)c1Cl (stereo not shown) , thanks.
Reply: 6.34

Task item: Also need CCOC(=O)C1c2ncn(-c3cnccn3)c2CCN1C(=O)c1cccc(Cl)c1Cl (stereo not shown) , thanks.
Reply: 5.68

Task item: Also need `CC1(C)c2ncn(-c3ccccc3)c2CCN1C(=O)c1cccc(C(F)(F)F)c1Cl` , thanks.
Reply: 5.31

Task item: Also need `O=C(c1ccc(Cl)cc1Cl)N1CCc2c(nnn2-c2cnccn2)C1` , thanks.
Reply: 5.72

Task item: Also need Cc1nc(-n2nnc3c2CCN(C(=O)c2cccc(C(F)(F)F)c2Cl)C3C)ncc1F (stereo not shown) , thanks.
Reply: 7.05

Task item: Also need CC1Cc2c(nnn2-c2ccc(F)cc2)C(C)N1C(=O)c1cccc(Cl)c1Cl (stereo not shown) , thanks.
Reply: 7.22

Task item: Also need `O=C(c1ccc(F)c(Cl)c1Cl)N1CCc2c(nnn2-c2ccccn2)C1` , thanks.
Reply: 6.81

Task item: Also need CC1C=CN=C(n2nnc3c2CCN(C(=O)c2cccc(C(F)(F)F)c2Cl)[C@@H]3C)N1 (single isomer, unassigned) , thanks.
Reply: 5.70

Task item: Also need CC1c2ncn(-c3ncccn3)c2CCN1C(=O)c1cccc(C(F)(F)F)c1Cl (stereo not shown) , thanks.
Reply: 7.04

Task item: Also need `O=C(c1cccc(C(F)(F)F)c1Cl)N1C=Cc2c(ncn2-c2cnccn2)C1` , thanks.
Reply: 5.39

Task item: Also need CC1c2ncn(-c3ccc(F)cn3)c2CCN1C(=O)c1cccc(C(F)(F)F)c1F (stereo not shown) , thanks.
Reply: 5.81

Task item: Also need C[C@@H]1Cc2c(nnn2-c2cc(F)ccn2)CN1C(=O)c1cccc(Cl)c1Cl (single isomer, unassigned) , thanks.
Reply: 7.97

Task item: Also need `O=C(c1cccc(C(F)(F)F)c1Cl)N1CCc2c(-c3cnccn3)n[nH]c2C1` , thanks.
Reply: 5.64

Task item: Also need Cc1ccnc(-n2nnc3c2CCN(C(=O)c2cccc(Cl)c2Cl)C3C)n1 (stereo not shown) , thanks.
Reply: 7.37
